- assayed target: BACE1 (Homo sapiens, UniProt P56817)
- Sequence (P56817 46-501): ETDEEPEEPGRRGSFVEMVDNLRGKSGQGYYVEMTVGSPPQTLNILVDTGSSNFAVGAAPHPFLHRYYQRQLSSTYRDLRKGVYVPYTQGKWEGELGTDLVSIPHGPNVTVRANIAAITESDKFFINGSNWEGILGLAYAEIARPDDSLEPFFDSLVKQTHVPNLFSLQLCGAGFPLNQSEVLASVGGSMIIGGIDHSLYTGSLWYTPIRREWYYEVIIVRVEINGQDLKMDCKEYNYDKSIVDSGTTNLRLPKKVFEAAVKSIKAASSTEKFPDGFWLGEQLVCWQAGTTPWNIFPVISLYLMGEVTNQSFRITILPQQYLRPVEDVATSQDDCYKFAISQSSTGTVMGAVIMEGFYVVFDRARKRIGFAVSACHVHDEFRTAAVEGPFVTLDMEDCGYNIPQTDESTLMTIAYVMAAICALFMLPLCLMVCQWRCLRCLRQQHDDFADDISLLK
- test name: Biochemical FRET based assay
- condition: recombinant BACE1 1 μg/ml, 120 minutes at room temperature, pH 5.0; read-out: Biochemical FRET based assay pIC50 (converted)
- Source text: This assay is a Fluorescence Resonance Energy Transfer Assay (FRET) based assay. The substrate for this assay is an APP derived 13 amino acids peptide that contains the ‘Swedish’ Lys-Met/Asn-Leu mutation of the amyloid precursor protein (APP) beta-secretase cleavage site. […] Upon cleavage by BACE1, the fluorophore Mca is separated from the quenching group Dnp, restoring the full fluorescence yield of the donor. The increase in fluorescence is linearly related to the rate of proteolysis. […]
parameter: IC50 (µM)
Write the value in µM as a bare number.

- compound: "CN1CC(N)=NC(C)(c2cccc(-c3cncnc3)c2)C1=O (racemic)"
  assayed target: "BACE1 (Homo sapiens, UniProt P56817)"
  result unit: "µM"
  observed result: 20.4
- compound: "COc1cncc(-c2cccc(C3(C)N=C(N)CN(C)C3=O)c2)c1 (racemic)"
  assayed target: "BACE1 (Homo sapiens, UniProt P56817)"
  result unit: "µM"
  observed result: 10.5

Query compound follows.
Any idea what IC50 came out for Cc1cnc(C(=O)Nc2cccc(C3(C)N=C(N)CN(C)C3=O)c2)cn1 (racemic) on BACE1 (Homo sapiens, UniProt P56817)?
7.08
